B1: H2-Kb / E4 (parent)
chain 1: AQSVTQPDARVTVSEGASLQLRCKYSYSGTPYLFWYVQYPRQGLQLLLKYYSGDPVVQGVNGFEAEFIKSNSSFHLRKASVHWSDSAVYFCAVSAGQGGSAKLIFGEGTKLTVSS
chain 2: GGIITQTPKFLIGQEGQKLTLKCQQNFNHDTMYWYRQDSGKGLRLIYYSITENDLQKGDLSEGYDASREKKSSFSLTVTSAQKNEMAVFLCASSIWGDSYEQYFGPGTRLTVL
chain 3: not shown
chain 4: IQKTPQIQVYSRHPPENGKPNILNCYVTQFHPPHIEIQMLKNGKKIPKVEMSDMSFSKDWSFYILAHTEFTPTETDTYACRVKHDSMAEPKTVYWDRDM
chain 5: SIINFEKL

Variants of: B1
Experiment: % of reporter cells activated (NFAT-GFP), raw; note: test concentration or dose not given here
Conditions: with E4
reportedProperty: ratio to parent

mutantCode: chain 5 I3M
ratio to parent: 1
--
mutantCode: chain 5 S1D
ratio to parent: 0.984
--
mutantCode: chain 5 E6R
ratio to parent: 0.81
--
mutantCode: chain 5 F5A
ratio to parent: 1.1
--
mutantCode: chain 5 I3N
ratio to parent: 0.667
--
mutantCode: chain 5 K7V
ratio to parent: 0.841
--
mutantCode: chain 5 L8H
ratio to parent: 0.825
--
mutantCode: chain 5 E6Q
ratio to parent: 0.778
--
mutantCode: chain 5 L8G
ratio to parent: 0.746
--
mutantCode: chain 5 S1Q
ratio to parent: 0.889

[A] chain 5 K7N
[B] chain 5 S1N
[C] chain 5 L8I
[D] chain 5 I2C
Could you please order the items by ratio to parent, going from the lowest number to the highest? Would you mind listing the labels in the order asked for?
C, A, B, D
